Tested on: HCC-2998 colon
Assay: NCI tumour cell line growth inhibition, 48 h
measured-attribute: TGI

Some solved entries appear below for comparison.
{"molecule": "CNS(=O)(=O)c1ccc2[nH]c(O)c(C3=Nc4ccccc4C3=O)c2c1", "TGI": "> 100 µM"}
{"molecule": "COC(=O)c1ccc(COC(=O)N2C=CCC2C(=O)O)cc1 (stereo not given)", "TGI": "> 100 µM"}
{"molecule": "O=[N+]([O-])c1ccc(N/N=C(\\c2ccccc2)c2ccccn2)nc1", "TGI": "> 59.6 µM"}

For every item in the list below, what is its measured TGI?
1. O=C1C(c2c(O)[nH]c3ccccc23)=Nc2ccc(Br)cc21
2. CCCCCCCCCCCCCCCCCC(=O)OCC(COC1OC(CS(=O)(=O)O)C(O)C(O)C1O)OC(=O)CCCCCCCCCCCCCCCCC (stereo not given)

1. > 100 µM
2. > 100 µM

----------
Hi there, I'd appreciate the recorded TGI for every entry that follows.
Test system: ACHN renal
Test: NCI tumour cell line growth inhibition, 48 h
Where a SMILES comes first, the peptide text is derived from it.

Some solved entries appear below for comparison.
{"compound": "COC(=O)C(Cc1ccccc1)NC(=O)Cn1ccnc1[N+](=O)[O-] (stereo unspecified)", "value-measured": "> 100 µM"}
{"compound": "CC1OC(OC2C(CO)OC(O[C@H]3CC[C@@]4(C)C(=CC[C@H]5[C@@H]6C[C@@H]7O[C@](O)(CC[C@H](CO)COC8OC(CO)C(O)C(O)C8O)[C@@H](C)[C@@H]7[C@@]6(C)CC[C@@H]54)C3)C(OC3OC(C)C(O)C(O)C3O)C2O)C(O)C(O)C1O (stereo partly specified)", "value-measured": "> 100 µM"}

For every item in the list below, what is its measured TGI?
1. Cc1ccc(NC2=C(Cl)C(=O)N(Cc3ccccc3)C2=O)cc1Cl
2. O=C1c2cc([N+](=O)[O-])cc3cc([N+](=O)[O-])cc(c23)C(=O)N1CCCNCCNCCCN1C(=O)c2cc([N+](=O)[O-])cc3cc([N+](=O)[O-])cc(c23)C1=O
3. CNC(=O)CNC(=O)C(NC(=O)CNC(=O)C1CCCN1C(=O)C(C)NC(=O)C(NC(C)=O)C(C)C)C(C)C (stereo unspecified) (Ac-VAPGVG-NHMe; configuration not given here)
4. C[C@H](N[C@H]1CCC[C@]1(O)C#Cc1ccc2c(c1)OCO2)c1ccccc1

1. 26.6 µM
2. > 23.2 µM
3. > 100 µM
4. > 25 µM

----------
Hi there, I'd appreciate the recorded TGI for every entry that follows.
Test system: OVCAR-4 ovarian
Test: NCI tumour cell line growth inhibition, 48 h

{"molecule": "CC(=O)OC[C@@]1(C)[C@@H]2[C@@H]3[C@@]4(CO[C@]3(C)C(=O)[C@@]3(O)C[C@H](C)[C@H](OC(C)=O)[C@@H]3[C@H]4OC(C)=O)[C@H](OC(=O)c3ccccc3)C[C@@H]21", "experimental-target": "OVCAR-4 ovarian", "TGI": "> 100 µM"}
{"molecule": "C/C=C1\\CNC1C(=O)O (stereo not given)", "experimental-target": "OVCAR-4 ovarian", "TGI": "> 100 µM"}
{"molecule": "COc1ccc2oc(=O)c(-c3nc4ccccc4o3)cc2c1", "experimental-target": "OVCAR-4 ovarian", "TGI": "> 100 µM"}
{"molecule": "COc1ccc(-c2nn(-c3cccc(NC(=O)c4cccc(C(F)(F)F)c4)c3)cc2-c2ccncc2)cc1Cl", "experimental-target": "OVCAR-4 ovarian", "TGI": "> 100 µM"}

For every item in the list below, what is its measured TGI?
1. COC(=O)CS(=O)c1ccccc1 (stereo not given)
2. COC(=O)c1cc(C)ccc1C1CN=NC12Cc1cccc(C)c1C2=O (stereo not given)

["> 100 µM", "> 100 µM"]

For every item in the list below, what is its measured TGI?
1. CCOC(=O)c1c(-c2ccccc2)nc2c(OC)nccn12
2. CCCc1nc(NC#N)nc(C(=O)NC23CC4CC(CC(C4)C2)C3)c1C

["> 100 µM", "> 100 µM"]

----------
Tested on: HOP-92 NSCLC
Experiment: NCI tumour cell line growth inhibition, 48 h
Hi there, I'd appreciate the recorded GI50 for every entry that follows.

Some solved entries appear below for comparison.
{"compound": "CC1(C)N=C(N)N=C(N)N1c1cccc(CCCCOc2ccccc2)c1", "GI50": "2260 nM"}
{"compound": "Cn1ccnc1C(=O)/C=C/c1ccc(CC(=O)Nc2ccc(F)cc2)cc1", "GI50": "4510 nM"}
{"compound": "O=C1/C(=C/c2ccccc2F)CN(C(=O)C(Cl)Cl)C/C1=C\\c1ccccc1F", "GI50": "1530 nM"}

For every item in the list below, what is its measured GI50?
1. O=C1CCC(N2Cc3c(C#CCCCNC(=O)c4cc5c(o4)C(=O)c4ccccc4C5=O)cccc3C2=O)C(=O)N1 (stereo not given)
2. CSC1=Nc2c(c(C)c(C)n2COC(CO)CO)C2=NC(=O)CC(C)N12 (stereo not given)
3. O=C(Nc1ccc(OCc2nnc(-c3ccccc3)o2)c(F)c1)Nc1ccc(Cl)c(C(F)(F)F)c1
4. Cc1nn(-c2ccccc2)c2nc3c(nc12)C1=NCCN1C(c1ccc(Cl)cc1)N3 (stereo not given)

9070 nM
> 100000 nM
1780 nM
2000 nM

For every item in the list below, what is its measured GI50?
1. Cc1cc(C)c2nc3nc(C)cc(C)c3c(N)c2c1
2. S=C(c1ccc2c(c1)OCO2)N1CCN(c2cccc(Cl)c2)CC1
3. N=c1n(Cc2ccccc2)c(N)cc(=O)n1Cc1ccccc1

3230 nM
95400 nM
2060 nM

----------
Hi there, I'd appreciate the recorded TGI for every entry that follows.
Test system: RXF 393 renal
Assay: NCI tumour cell line growth inhibition, 48 h
Numbers only, in µM.

Some solved entries appear below for comparison.
{"molecule": "N=c1n(Cc2ccccc2)c(N)cc(=O)n1Cc1ccccc1", "measured-attribute": "TGI", "value-measured": 5.71}
{"molecule": "C=CC[C@@H]1/C=C(\\C)C[C@H](C)C[C@H](OC)[C@H]2O[C@@](O)(C(=O)C(=O)N3CCCC[C@H]3C(=O)O[C@H](/C(C)=C/C3CC[C@@H](O)[C@H](OC)C3)[C@H](C)[C@@H](O)CC1=O)[C@H](C)C[C@@H]2OC (some centres undefined)", "measured-attribute": "TGI", "value-measured": 27.3}
{"molecule": "S=C(c1ccc2c(c1)OCO2)N1CCN(c2cccc(Cl)c2)CC1", "measured-attribute": "TGI", "value-measured": 40.8}

Now for another entry.
TGI for RXF 393 renal with input O=C1C(=c2cc3c(c4ccccc24)=NC24CCCCC2C(c2ccccc2)C=C(c2ccccc2)N34)C(=O)c2ccccc21 (centres undefined) equals 49

----------
System: SNB-19 CNS
Assay: NCI tumour cell line growth inhibition, 48 h
Hi there, I'd appreciate the recorded TGI for every entry that follows.

Some solved entries appear below for comparison.
{"compound": "OCC1OC2OC3C(CO)OC(OC4C(CO)OC(OC5C(CO)OC(OC6C(CO)OC(OC7C(CO)OC(OC1C(O)C2O)C(O)C7O)C(O)C6O)C(O)C5O)C(O)C4O)C(O)C3O (stereo not drawn) (tested in a mixture with another compound)", "TGI": "> 100 µM"}
{"compound": "CC(C)[Si](OC1=C(C(=O)N(C)c2ccccc2Cl)CCCCC1)(C(C)C)C(C)C", "TGI": "> 100 µM"}
{"compound": "CCOC(=O)C(=O)Nc1c(CC)cccc1C(C)CC (stereo not drawn)", "TGI": "> 100 µM"}
{"compound": "COC(=O)C1=C(CS(=O)c2ccc([N+](=O)[O-])cc2[N+](=O)[O-])ON(C)C1c1ccccc1 (stereo not drawn)", "TGI": "> 87.9 µM"}
{"compound": "C[C@]12CC[C@H]3[C@@H](CCC4=CC(=O)CC[C@@]43C)[C@@H]1CC[C@@H]2C(=O)Nc1ccc([N+](=O)[O-])c(C(F)(F)F)c1", "TGI": "36.8 µM"}

For every item in the list below, what is its measured TGI?
1. C/C=N\n1c(C)c(C#N)c(C#N)c1N
2. CCn1c(-c2nonc2N)nc2cncc(C(=O)NCCNC)c21

["> 100 µM", "> 25 µM"]

For reference, reported TGI for O=C1/C(=C/c2ccccc2F)CN(C(=O)C(Cl)Cl)C/C1=C\c1ccccc1F stands at 1.46 µM

----------
System: NCI/ADR-RES ovarian
Assay: NCI tumour cell line growth inhibition, 48 h
measured-attribute: TGI (µM)
Answers are plain numbers, in µM.

{"compound": "O=[N+]([O-])c1ccc(N/N=C(\\c2ccccc2)c2ccccn2)nc1", "value-measured": 2.02}
{"compound": "O=C1CC[C@H](c2ccc(O)c3c2C(=O)[C@@H]2O[C@@H]2C3=O)c2cccc(O)c21", "value-measured": 15.1}
{"compound": "CC1OC(OC2C(CO)OC(O[C@H]3CC[C@@]4(C)C(=CC[C@H]5[C@@H]6C[C@@H]7O[C@](O)(CC[C@H](C)COC8OC(CO)C(O)C(O)C8O)[C@@H](C)[C@@H]7[C@@]6(C)CC[C@@H]54)C3)C(OC3OC(C)C(O)C(O)C3O)C2O)C(O)C(O)C1O (stereo not given in full)", "value-measured": 18.4}
{"compound": "Cn1c(=O)cc(N=Nc2ccc(Cl)c(Cl)c2)[nH]c1=O", "value-measured": 77.4}
{"compound": "O=c1c2cc(-c3ccccc3)cnc2sn1-c1ccc(Oc2ccccc2)cc1", "value-measured": 80.1}

For every item in the list below, what is its measured TGI?
1. COC(=O)c1cc(C)ccc1C1CN=NC12Cc1cccc(C)c1C2=O (stereo not given)
2. Clc1ccc(C2=C(c3ccccc3)C(c3ccc(Cl)cc3)N3C(=N[C@H]4CCCC[C@@H]43)N2)cc1 (stereo not given in full)
3. COc1c(O)c(O)c2c(c1O)C(=O)c1cc(C)cc(O)c1C2=O
4. C=C(C)[C@@H]1CC[C@]2(C(=O)O)CC[C@]3(C)[C@H](CC[C@@H]4[C@@]5(C)C/C(=C/c6ccc(OC)cc6)C(=O)C(C)(C)[C@@H]5CC[C@]43C)[C@@H]12
5. C/C(=C\CCc1ccsc1)CC/C=C(\C)CCCN1CCC(CO)CC1

1. 77.9
2. 28.1
3. 47.3
4. 13.3
5. 13.3

For every item in the list below, what is its measured TGI?
1. CCN(CC)CCCC(Cc1ccccc1)Nc1c2ccc(Cl)cc2nc2ccc(OC)cc12 (stereo not given)
2. CN(C)CCNC1=CC(=O)c2nc3ccccc3c3ccnc1c23
3. NC1=CC(=O)c2nc3ccccc3c3ccnc1c23
4. C[C@@H](CO)C1=CC(C#C[Si](C)(C)C)N(C(=O)Oc2ccccc2)c2ccccc21 (stereo not given in full)
5. N=c1n(Cc2ccccc2)c(N)cc(=O)n1Cc1ccccc1

1: 10.4; 2: 28.5; 3: 69.4; 4: 31.3; 5: 5.71

For reference, reported TGI for CC1OC(n2c3ccccc3c3c4c(c5c6ccccc6[nH]c5c32)C(=O)N(CCN2CCOCC2)C4=O)CC(O)C1O (stereo not given) stands at 13.1
